Target: human B1R (Homo sapiens, UniProt P46663)
Construct: expressed in transfected cells; host or cells: CHO K1 cells
Sequence (P46663 whole entry): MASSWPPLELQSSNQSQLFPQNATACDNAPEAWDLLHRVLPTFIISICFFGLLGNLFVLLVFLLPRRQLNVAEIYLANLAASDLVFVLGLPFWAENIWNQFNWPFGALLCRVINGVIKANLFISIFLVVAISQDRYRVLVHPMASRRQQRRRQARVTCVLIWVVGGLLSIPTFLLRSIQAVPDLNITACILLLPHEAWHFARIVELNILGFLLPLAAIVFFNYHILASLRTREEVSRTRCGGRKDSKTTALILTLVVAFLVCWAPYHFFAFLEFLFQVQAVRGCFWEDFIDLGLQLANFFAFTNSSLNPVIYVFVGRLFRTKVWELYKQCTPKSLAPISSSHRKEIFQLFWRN
Assay: FLIPR Ca2+ functional study on bradykinin receptor 1 (hB1R CHO K1 cells)
Type: cell-based
Conditions: % inhibition human B1R at 10 μM, read-out: % inh. (hum. B1R) 10 μM
Excerpt: The agonistic or antagonistic activity of substances can be quantified on the bradykinin receptor 1 (B1R) of the species human and rat using ectopically expressing cell lines (CHO K1 cells) and with the aid of a Ca^2+-sensitive dye (Fluo-4) using a fluorescent imaging plate reader (FLIPR). […] The agonistic or antagonistic activity of substances can be determined on the bradykinin receptor 1 (B1R) of the species human and rat using the following assay. […]
Form field: inhibition at 10 µM (one value per entry).

| Molecule | inhibition at 10 µM [%] |
| --- | --- |
| COc1cc(C)c(S(=O)(=O)N(CCOc2nccc(N3CCC4(CCN(c5ccncc5)C4)C3)n2)C2CC2)c(C)c1 (stereo not shown) [Example G-014] | 100 |
| COc1cc(C)c(S(=O)(=O)N2CCC[C@H]2COc2nccc(N3CCC4(CCN(c5ccncc5)CC4)CC3)n2)c(C)c1 [G_CC-055] | 97 |
| COc1cc(C)c(S(=O)(=O)N2CCCCC2COc2nccc(N(C)CCN3CCC(c4ccccc4)(N(C)C)CC3)n2)c(C)c1 (stereo not shown) [G_CC-004] | 100 |
| COc1cc(C)c(S(=O)(=O)N2CCC[C@H]2COc2nccc(N3CCC4(CC3)CCN(c3ccc(F)cc3)C4=O)n2)c(C)c1 [G_CC-048] | 28 |
| COc1cc(C)c(S(=O)(=O)NC2(COc3nccc(N4CCC5(CCN(c6ccncc6)CC5)CC4)n3)CCC2)c(C)c1 [Example G-022] | 100 |
| COc1cc(C)c(S(=O)(=O)N(CCCc2cncc(N3CCC4(CCN(c5ccncc5)CC4)CC3)n2)C2CC2)c(C)c1 [Example I-006] | 94 |
| COc1cc(C)c(S(=O)(=O)N(C)CCOc2ccnc(N3CCC4(CCN(c5ccncc5)CC4)CC3)n2)c(C)c1 [H_CC-029] | 92 |
